Source listed as paper PMC6958523.

# measurementNotes: Metabolites of ZL277 in urine and fecal samples from treated mice
# Assay type: in vivo
# reportedConditions: mice treated with ZL277
endpoint: relative abundance among metabolites in urine

>>> endpointvalue("O=C(/C=C/c1cccc(S(=O)(=O)Nc2ccccc2)c1)NO [Belinostat, belinostat]")
"major components"
>>> endpointvalue("O=C(/C=C/c1cccc(S(=O)(=O)Nc2ccccc2)c1)NOCc1ccc(B(O)O)cc1 [ZL277-B(OH)2-452]")
"major components"
>>> endpointvalue("O=C(/C=C/c1cccc(S(=O)(=O)Nc2ccccc2)c1)NOCc1ccc(O)cc1 [ZL277-OH-424]")
"major components"

---

# measurementNotes: Metabolites of ZL277 in urine and fecal samples from treated mice
# Assay type: in vivo
# reportedConditions: mice treated with ZL277
endpoint: relative abundance among metabolites in feces

>>> endpointvalue("O=C(/C=C/c1cccc(S(=O)(=O)Nc2ccccc2)c1)NOCc1ccc(B(O)O)cc1")
"major metabolites"
>>> endpointvalue("O=C(/C=C/c1cccc(S(=O)(=O)Nc2ccccc2)c1)NOCc1ccc(O)cc1")
"major metabolites"
>>> endpointvalue("O=C(/C=C/c1cccc(S(=O)(=O)Nc2ccccc2)c1)NO")
"major metabolites"
